biological target: HLA-DRB1*0401 (Homo sapiens, UniProt P01903+P01911, A100K/A169T/F76Y/I96L/K127E/L162R/M171V/N62H/P40V/Q125Y/R42H/S133A/S149N/S66Y/V115G/V209L/W38E); assay: biochemical; assay type: binding
Where no end group is shown, it is not given here.
IC50 values by entry
Give the number; nM is assumed, so skip it.

* QNILLSNAVLGPQFP [P64 V] | 158

Tell me the measured IC50 of QNIVLSNAPLGPQFP [L59 V] , please.
95

What would you report for QNILVSNAPLGPQFP [L60 V] ?
612

###

target: HLA-DRB1*0401 (Homo sapiens, UniProt P01903+P01911, A100K/A169T/F76Y/I96L/K127E/L162R/M171V/N62H/P40V/Q125Y/R42H/S133A/S149N/S66Y/V115G/V209L/W38E); assay: biochemical; assay type: binding
Where no end group is shown, it is not given here.
Observable: IC50 (nM)
Give the number; nM is assumed, so skip it.

Tell me the measured IC50 of DYSFLQDSDPDSFQD [Y451 F] , please.
563

What would you report for QNILQSNAPLGPQFP [L60 Q] ?
750

What would you report for QNILLSNAPVGPQFP [L65 V] ?
1500

What would you report for QNIQLSNAPLGPQFP [L59 Q] ?
750

What would you report for QNILFSNAPLGPQFP [L60 F] ?
1100

What would you report for QNVLLSNAPLGPQFP [I58 V] ?
957

What would you report for QNIFLSNAPLGPQFP [L59 F] ?
321

Source listed as paper PMC2192565.
